Molecular target: Glutaminase kidney isoform, mitochondrial (Homo sapiens) (UniProt O94925)
Sequence (O94925 whole entry, looked up, canonical isoform): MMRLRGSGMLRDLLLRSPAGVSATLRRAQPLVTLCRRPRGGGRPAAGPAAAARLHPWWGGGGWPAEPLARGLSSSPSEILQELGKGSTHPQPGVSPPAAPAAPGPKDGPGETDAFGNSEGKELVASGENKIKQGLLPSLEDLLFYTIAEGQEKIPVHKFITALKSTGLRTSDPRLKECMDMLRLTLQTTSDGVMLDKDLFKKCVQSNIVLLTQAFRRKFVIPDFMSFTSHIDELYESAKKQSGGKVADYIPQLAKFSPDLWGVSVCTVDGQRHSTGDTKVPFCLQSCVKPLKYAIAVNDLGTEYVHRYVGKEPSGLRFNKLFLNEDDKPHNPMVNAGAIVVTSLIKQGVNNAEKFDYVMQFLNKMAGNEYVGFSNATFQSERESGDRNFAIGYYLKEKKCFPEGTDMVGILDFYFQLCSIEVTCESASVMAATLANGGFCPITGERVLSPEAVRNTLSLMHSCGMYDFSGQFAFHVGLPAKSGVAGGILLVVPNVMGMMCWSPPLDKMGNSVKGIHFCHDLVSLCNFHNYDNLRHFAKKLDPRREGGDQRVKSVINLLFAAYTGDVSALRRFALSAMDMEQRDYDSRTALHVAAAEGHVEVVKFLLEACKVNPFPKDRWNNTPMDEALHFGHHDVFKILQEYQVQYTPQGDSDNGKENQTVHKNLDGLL
Assay: qHTS for Inhibitors of Glutaminase (GLS): LOPAC Validation (AID 624146);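 note: glutamate product detected by oxidase and peroxidase coupled Amplex red fluorescence gain; nearly all actives have a fitted effect of over 60% in size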
Conditions: glutaminase enzyme activity inhibition; series mostly up to 46.1 µM
Results filed as inconclusive are left out. Calls of active or inactive are those of the source. Calls come from the whole dose curve; as a rule, active = well fitted inhibition curve with a large enough effect; inconclusive = small, poorly fitted or top-dose-only effect; inactive = no such curve, though single readings can be large or run the other way.
Lab note: assign the record to one of active, inactive

Previously resolved entries follow.
{"Compound": "[Li+]", "Class Assignment": "inactive"}
{"Compound": "CCCCCCCCCC(=O)NC(CN1CCOCC1)[C@H](O)c1ccccc1 (stereo not given in full)", "Class Assignment": "inactive"}

Exercise: How was `CCCc1c(-c2ccc(O)cc2)nn(-c2ccc(O)cc2)c1-c1ccc(O)cc1` classified in this test?
Solution: inactive

Exercise: How was COC1(C2=NCCN2)COc2ccccc2O1 (stereo not given) classified in this test?
Solution: inactive

Exercise: How was `c1ccc2c(c1)CCC[C@H]2Nc1nc2ccccc2[nH]1` classified in this test?
Solution: inactive

Exercise: How was CCCCS(=N)(=O)CC[C@H](N)C(=O)O (stereo not given in full) classified in this test?
Solution: inactive

Exercise: How was CC1CNCCN1S(=O)(=O)c1cccc2cnccc12 (stereo not given) classified in this test?
Solution: inactive

Data provenance is PubChem BioAssay (NCATS).
